Measured values drawn from patent US20100099610A1 for this set.

- target_under_test: hGHQ40N (human, UniProt P01241 27-217)
- Sequence (P01241 27-217 Q66N): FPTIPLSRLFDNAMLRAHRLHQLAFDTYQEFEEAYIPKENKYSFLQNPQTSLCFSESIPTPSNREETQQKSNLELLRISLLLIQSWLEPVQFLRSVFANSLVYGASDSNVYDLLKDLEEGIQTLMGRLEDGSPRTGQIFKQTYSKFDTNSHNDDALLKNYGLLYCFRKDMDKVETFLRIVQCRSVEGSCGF
- protocol_details: cell-based or functional assay
parameter: RSA Q141

Use the examples below as a reference point.
Query :: Looking for the measured RSA Q141 of S. ladakanum GlyPro-TGase mutant S250G (enzyme) GPDSDERVTPPAEPLDRMPDPYRPSYGRAETIVNNYIRKWQQVYSHRDGRKQQMTEEQREWLSYGCVGVTWVNSGQYPTNRLAFAFFDEDKYKNELKNGRPRSGETRAEFEGRVAKDSFDEAKGFQRARDVASVMNKALENAHDEGAYLDNLKKELANGNDALRNEDARSPFYSALRNTPSFKDRNGGNHDPSKMKAVIYSKHFWSGQDRSGSSDKRKYGDPEAFRPDRGTGLVDMSRDRNIPRSPTSPGEGFVNFDYGWFGAQTEADADKTVWTHGNHYHAPNGSLGAMHVYESKFRNWSDGYSDFDRGAYVVTFVPKSWNTAPDKVKQGWP , can you help?
Result :: 2.42 relative to wild type TGase

Query :: Try this binder next: S. ladakanum GlyPro-TGase mutant S250L (enzyme) GPDSDERVTPPAEPLDRMPDPYRPSYGRAETIVNNYIRKWQQVYSHRDGRKQQMTEEQREWLSYGCVGVTWVNSGQYPTNRLAFAFFDEDKYKNELKNGRPRSGETRAEFEGRVAKDSFDEAKGFQRARDVASVMNKALENAHDEGAYLDNLKKELANGNDALRNEDARSPFYSALRNTPSFKDRNGGNHDPSKMKAVIYSKHFWSGQDRSGSSDKRKYGDPEAFRPDRGTGLVDMSRDRNIPRSPTSPGELFVNFDYGWFGAQTEADADKTVWTHGNHYHAPNGSLGAMHVYESKFRNWSDGYSDFDRGAYVVTFVPKSWNTAPDKVKQGWP
Result :: 3.59 relative to wild type TGase

Query :: Try S. ladakanum GlyPro-TGase mutant S250D (enzyme) GPDSDERVTPPAEPLDRMPDPYRPSYGRAETIVNNYIRKWQQVYSHRDGRKQQMTEEQREWLSYGCVGVTWVNSGQYPTNRLAFAFFDEDKYKNELKNGRPRSGETRAEFEGRVAKDSFDEAKGFQRARDVASVMNKALENAHDEGAYLDNLKKELANGNDALRNEDARSPFYSALRNTPSFKDRNGGNHDPSKMKAVIYSKHFWSGQDRSGSSDKRKYGDPEAFRPDRGTGLVDMSRDRNIPRSPTSPGEDFVNFDYGWFGAQTEADADKTVWTHGNHYHAPNGSLGAMHVYESKFRNWSDGYSDFDRGAYVVTFVPKSWNTAPDKVKQGWP next.
Result :: 1.04 relative to wild type TGase

Continuing:
Query :: Sample S. ladakanum GlyPro-TGase mutant Y62N (enzyme) GPDSDERVTPPAEPLDRMPDPYRPSYGRAETIVNNYIRKWQQVYSHRDGRKQQMTEEQREWLSNGCVGVTWVNSGQYPTNRLAFAFFDEDKYKNELKNGRPRSGETRAEFEGRVAKDSFDEAKGFQRARDVASVMNKALENAHDEGAYLDNLKKELANGNDALRNEDARSPFYSALRNTPSFKDRNGGNHDPSKMKAVIYSKHFWSGQDRSGSSDKRKYGDPEAFRPDRGTGLVDMSRDRNIPRSPTSPGESFVNFDYGWFGAQTEADADKTVWTHGNHYHAPNGSLGAMHVYESKFRNWSDGYSDFDRGAYVVTFVPKSWNTAPDKVKQGWP — what was its RSA Q141?
Result :: 0.18 relative to wild type TGase

Query :: Please give the result for GlyPro-mTGase_Y75A from S. ladakanum (enzyme) GPDSDERVTPPAEPLDRMPDPYRPSYGRAETIVNNYIRKWQQVYSHRDGRKQQMTEEQREWLSYGCVGVTWVNSGQAPTNRLAFAFFDEDKYKNELKNGRPRSGETRAEFEGRVAKDSFDEAKGFQRARDVASVMNKALENAHDEGAYLDNLKKELANGNDALRNEDARSPFYSALRNTPSFKDRNGGNHDPSKMKAVIYSKHFWSGQDRSGSSDKRKYGDPEAFRPDRGTGLVDMSRDRNIPRSPTSPGESFVNFDYGWFGAQTEADADKTVWTHGNHYHAPNGSLGAMHVYESKFRNWSDGYSDFDRGAYVVTFVPKSWNTAPDKVKQGWP too.
Result :: 0.06 relative to wild type TGase

Query :: Here is the next binder: S. ladakanum GlyPro-TGase mutant S250C (enzyme) GPDSDERVTPPAEPLDRMPDPYRPSYGRAETIVNNYIRKWQQVYSHRDGRKQQMTEEQREWLSYGCVGVTWVNSGQYPTNRLAFAFFDEDKYKNELKNGRPRSGETRAEFEGRVAKDSFDEAKGFQRARDVASVMNKALENAHDEGAYLDNLKKELANGNDALRNEDARSPFYSALRNTPSFKDRNGGNHDPSKMKAVIYSKHFWSGQDRSGSSDKRKYGDPEAFRPDRGTGLVDMSRDRNIPRSPTSPGECFVNFDYGWFGAQTEADADKTVWTHGNHYHAPNGSLGAMHVYESKFRNWSDGYSDFDRGAYVVTFVPKSWNTAPDKVKQGWP
Result :: 5.34 relative to wild type TGase

Query :: Please give the result for S. ladakanum GlyPro-TGase mutant Y75L (enzyme) GPDSDERVTPPAEPLDRMPDPYRPSYGRAETIVNNYIRKWQQVYSHRDGRKQQMTEEQREWLSYGCVGVTWVNSGQLPTNRLAFAFFDEDKYKNELKNGRPRSGETRAEFEGRVAKDSFDEAKGFQRARDVASVMNKALENAHDEGAYLDNLKKELANGNDALRNEDARSPFYSALRNTPSFKDRNGGNHDPSKMKAVIYSKHFWSGQDRSGSSDKRKYGDPEAFRPDRGTGLVDMSRDRNIPRSPTSPGESFVNFDYGWFGAQTEADADKTVWTHGNHYHAPNGSLGAMHVYESKFRNWSDGYSDFDRGAYVVTFVPKSWNTAPDKVKQGWP too.
Result :: 0.18 relative to wild type TGase

Query :: Try this binder too: S. ladakanum GlyPro-TGase mutant Y75C (enzyme) GPDSDERVTPPAEPLDRMPDPYRPSYGRAETIVNNYIRKWQQVYSHRDGRKQQMTEEQREWLSYGCVGVTWVNSGQCPTNRLAFAFFDEDKYKNELKNGRPRSGETRAEFEGRVAKDSFDEAKGFQRARDVASVMNKALENAHDEGAYLDNLKKELANGNDALRNEDARSPFYSALRNTPSFKDRNGGNHDPSKMKAVIYSKHFWSGQDRSGSSDKRKYGDPEAFRPDRGTGLVDMSRDRNIPRSPTSPGESFVNFDYGWFGAQTEADADKTVWTHGNHYHAPNGSLGAMHVYESKFRNWSDGYSDFDRGAYVVTFVPKSWNTAPDKVKQGWP
Result :: 0.18 relative to wild type TGase
